System: HaCat
MEASUREMENT_PROTOCOL: Cytotoxic Profiling of Annotated Libraries Using Quantitative High-Throughput Screening (AID 1296008); further: nearly all actives have a fitted effect of over 60% in size
EXPERIMENTAL_PARAMETERS: Five cell lines viability, CellTiter-Glo ATP luminescence, 48-72 h
Inconclusive results are not listed. The source made the active and inactive calls. The call rests on the fitted dose curve; in most records, active means well fitted inhibition curve with a large enough effect; inconclusive means small, poorly fitted or top-dose-only effect; inactive means flat fitted curve, though single readings scatter.
Labels: 1 (yes) = active, 0 (no) = inactive

COMPOUND: CC(=O)O[C@@H]1CC[C@@]2(C)[C@H](CC[C@@H]3[C@@H]2C[C@H](OC(C)=O)[C@]2(C)[C@@H](C(C)=O)CC[C@@H]32)C1
TESTED_SYSTEM: HaCat
CATEGORY_LABEL: 0 (no)
--
COMPOUND: c1cc(NCCc2c[nH]c3ccccc23)cc(Nc2ccncc2)c1
TESTED_SYSTEM: HaCat
CATEGORY_LABEL: 0 (no)
--
COMPOUND: c1cc(NC2CCNCC2)nc(-c2cnc3ccccn23)c1
TESTED_SYSTEM: HaCat
CATEGORY_LABEL: 1 (yes)
--
COMPOUND: O=C(O)c1ccc(N2C(=O)/C(=C/c3ccc(-c4ccc([N+](=O)[O-])cc4)o3)C=C2c2ccccc2)cc1
TESTED_SYSTEM: HaCat
CATEGORY_LABEL: 0 (no)
--
COMPOUND: CC1=C2C[C@@]3(C)C(CCC[C@@H]3C)C(O)C2OC1=O (some centres undefined)
TESTED_SYSTEM: HaCat
CATEGORY_LABEL: 0 (no)
--
COMPOUND: O=C(NCCCCN1CCN(c2cccc(Cl)c2Cl)CC1)c1cc2ccccc2s1
TESTED_SYSTEM: HaCat
CATEGORY_LABEL: 0 (no)
--
COMPOUND: CCn1c(=O)n([C@H]2CCCN(c3nccc(-c4cc5ccccc5o4)n3)C2)c2ccccc21
TESTED_SYSTEM: HaCat
CATEGORY_LABEL: 0 (no)
--
COMPOUND: CCNC1(C(N)=O)CN(c2nc(C)nc3c(-c4ccc(Cl)cc4)c(-c4ccccc4Cl)nn23)C1
TESTED_SYSTEM: HaCat
CATEGORY_LABEL: 0 (no)
--
COMPOUND: CNC(=O)COC(=O)N1CCC(CCc2ccc(Cl)cc2)CC1
TESTED_SYSTEM: HaCat
CATEGORY_LABEL: 0 (no)
--
COMPOUND: C=C1C(=O)O[C@@H]2C=C(COC(C)=O)CC/C=C(\CO)CC[C@@H]12
TESTED_SYSTEM: HaCat
CATEGORY_LABEL: 0 (no)
--
COMPOUND: O=C(Nc1ccc(C(F)(F)F)cn1)N1CCN(c2ncccc2C(F)(F)F)CC1
TESTED_SYSTEM: HaCat
CATEGORY_LABEL: 0 (no)
--
COMPOUND: CC(C)CCCCC(=O)N[C@@H](CO)C(=O)N[C@@H](CC(C)C)C(=O)[C@@]1(CO)CO1
TESTED_SYSTEM: HaCat
CATEGORY_LABEL: 0 (no)
--
COMPOUND: NCC1CCN(c2nccc(-c3ccc4ccccc4c3)n2)CC1
TESTED_SYSTEM: HaCat
CATEGORY_LABEL: 1 (yes)
--
COMPOUND: CC(C)(C)NC(=O)[C@H]1CC[C@H]2[C@@H]3CC[C@H]4NC(=O)CC[C@]4(C)[C@H]3CC[C@]12C
TESTED_SYSTEM: HaCat
CATEGORY_LABEL: 0 (no)
--
COMPOUND: CC(C)(F)CC(NC(c1ccc(-c2ccc(S(C)(=O)=O)cc2)cc1)C(F)(F)F)C(=O)NC1(C#N)CC1 (centres undefined)
TESTED_SYSTEM: HaCat
CATEGORY_LABEL: 0 (no)
--
COMPOUND: C=C(C)C(=O)OC1CC2(C)OC(=CC2=O)C(=C)CC2OC(=O)C(=C)C12 (centres undefined)
TESTED_SYSTEM: HaCat
CATEGORY_LABEL: 1 (yes)
--
COMPOUND: CCC(C)C1NC(=O)C(Cc2ccccc2)NC(=O)C(CCCCCC(=O)C(O)CO)NC(=O)C2CCCCN2C1=O (centres undefined)
TESTED_SYSTEM: HaCat
CATEGORY_LABEL: 0 (no)
--
COMPOUND: CC(C)(O)C1CC(=O)C2(C)C(CCC3(C)C(c4ccoc4)OC(=O)C4OC432)C12CCC(=O)OC2 (centres undefined)
TESTED_SYSTEM: HaCat
CATEGORY_LABEL: 0 (no)
--
COMPOUND: CC[C@@H](C)Nc1cc(C(=O)NC2CC3CC[C@@H](C2)N3c2ccc(C(=O)C3CC3)cn2)c(C)cc1C(N)=O (some centres undefined)
TESTED_SYSTEM: HaCat
CATEGORY_LABEL: 1 (yes)
